Cited source: patent US9187458B2

Target: EGFR-TK (Homo sapiens)
Construct: EGFR-TK: intracellular epidermal growth factor receptor phosphorylase
Sequence (P00533 669-1210 limits assumed): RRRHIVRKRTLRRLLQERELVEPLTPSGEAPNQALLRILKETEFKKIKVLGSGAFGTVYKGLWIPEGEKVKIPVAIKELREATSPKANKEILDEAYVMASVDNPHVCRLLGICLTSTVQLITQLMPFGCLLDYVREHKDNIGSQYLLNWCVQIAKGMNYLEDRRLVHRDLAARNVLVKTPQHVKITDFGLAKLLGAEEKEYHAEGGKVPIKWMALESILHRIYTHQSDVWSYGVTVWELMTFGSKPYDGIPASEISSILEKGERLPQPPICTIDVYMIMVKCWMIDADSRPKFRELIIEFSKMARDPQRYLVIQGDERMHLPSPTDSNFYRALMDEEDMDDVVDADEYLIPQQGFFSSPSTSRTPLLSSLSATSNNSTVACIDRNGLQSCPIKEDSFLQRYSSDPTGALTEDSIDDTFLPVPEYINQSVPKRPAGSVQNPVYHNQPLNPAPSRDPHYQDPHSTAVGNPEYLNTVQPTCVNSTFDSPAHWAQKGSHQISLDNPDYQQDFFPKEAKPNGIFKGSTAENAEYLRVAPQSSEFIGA
Experiment: Inhibition Test on EGFR-TK (ELISA, PGT substrate)
Conditions: 20 min at room temperature, read-out: Inhibition Activity (EC50) on EGFR-TK phosphorylation
API: label(entry) gives y if the entry's EC50 is strictly smaller than 100 nM; on equality or larger values it gives n.

[
  {
    "molecule": "CN(C)C/C=C/C(=O)Nc1cc2c(Nc3ccc(OCc4ccccn4)c(Cl)c3)c(C#N)cnc2cc1OC1CCOC1 (stereo not drawn)",
    "class_name": "n"
  },
  {
    "molecule": "N#Cc1cnc2cc(OC3CCOC3)c(NC(=O)C=C3CCNCC3)cc2c1Nc1ccc(OCc2cccc(F)c2)c(Cl)c1 (stereo not drawn)",
    "class_name": "y"
  },
  {
    "molecule": "C#Cc1cccc(Nc2c(C#N)cnc3cc(OC4CCOC4)c(NC(=O)/C=C/CN(C)C)cc23)c1 (stereo not drawn)",
    "class_name": "y"
  },
  {
    "molecule": "CN(C)C/C=C/C(=O)Nc1cc2c(Nc3ccc(OCc4ccccn4)c(Cl)c3)c(C#N)cnc2cc1O[C@H]1CCOC1",
    "class_name": "n"
  },
  {
    "molecule": "CN(C)C/C=C/C(=O)Nc1cc2c(Nc3ccc(F)c(Cl)c3)c(C#N)cnc2cc1OC1CCOC1 (stereo not drawn)",
    "class_name": "y"
  },
  {
    "molecule": "CN(C)C/C=C/C(=O)Nc1cc2c(Nc3ccc(OCc4cccc(F)c4)c(Cl)c3)c(C#N)cnc2cc1OC1CCOC1 (stereo not drawn)",
    "class_name": "n"
  }
]
